read-out: Cytochrome P450 3A4 (Homo sapiens) (UniProt P08684); test: LTEA_HepaRG_CYP3A4: Life Technologies and Expression Analysis (LTEA) Assay for CYP3A4 using HepaRG (AID 2283487); details: mRNA level, 48 h; actives raise or lower the signal
Sequence (P08684 whole entry, looked up): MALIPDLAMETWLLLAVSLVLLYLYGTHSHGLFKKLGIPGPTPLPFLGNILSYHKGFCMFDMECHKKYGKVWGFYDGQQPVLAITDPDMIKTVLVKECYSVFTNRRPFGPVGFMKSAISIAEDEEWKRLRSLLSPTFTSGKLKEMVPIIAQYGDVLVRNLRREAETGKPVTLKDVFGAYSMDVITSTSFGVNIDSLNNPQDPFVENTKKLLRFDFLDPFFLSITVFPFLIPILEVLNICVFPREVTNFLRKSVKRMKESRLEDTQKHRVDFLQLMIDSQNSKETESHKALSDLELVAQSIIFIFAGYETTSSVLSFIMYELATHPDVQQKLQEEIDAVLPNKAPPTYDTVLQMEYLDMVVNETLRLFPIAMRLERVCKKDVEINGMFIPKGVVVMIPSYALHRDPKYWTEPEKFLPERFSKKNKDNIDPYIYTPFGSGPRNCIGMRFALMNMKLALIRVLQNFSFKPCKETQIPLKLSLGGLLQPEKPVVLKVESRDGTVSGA
Active and inactive are the calls of the source. How the source made its calls: active means hit-call score of the fitted dose curve at least 0.9, where 1 is the maximum; inactive means score below 0.9.
Labels: active, inactive

>  <COMPOUND>
CCCSC(=O)N(CCC)CCC

>  <CATEGORY>
inactive

$$$$
>  <COMPOUND>
CCNS(=O)(=O)C(F)(F)C(F)(F)C(F)(F)C(F)(F)C(F)(F)C(F)(F)C(F)(F)C(F)(F)F

>  <CATEGORY>
inactive

$$$$
>  <COMPOUND>
Cn1cc(-c2ccccc2)c(=O)c(-c2cccc(C(F)(F)F)c2)c1

>  <CATEGORY>
active

$$$$
>  <COMPOUND>
OCCOCCO

>  <CATEGORY>
inactive

$$$$
>  <COMPOUND>
Oc1ccccc1Cl

>  <CATEGORY>
inactive

$$$$
>  <COMPOUND>
O=C(O)C1C2CCC(O2)C1C(=O)O (configuration not stated)

>  <CATEGORY>
active

$$$$
>  <COMPOUND>
c1ccc2c(c1)-c1cccc3cccc-2c13

>  <CATEGORY>
active

$$$$
